Assay: plasma pharmacokinetics in first‐in‐human study
Assay type: in vivo
Conditions: human, plasma, oral, Tmax, median range across cohorts, Part B, Day 1
READOUT: Tmax

*Q* What Tmax value was documented for this compound, Nc1ccc(-c2nc([C@H]3CCc4cc(-c5cc(Cl)ccc5-n5cnnn5)cc(=O)n43)c(F)[nH]2)c(F)n1 [ONO‐7684] ?
*A* 2.5 to 4 h

---

Assay: plasma pharmacokinetics in first‐in‐human study
Type: in vivo
Conditions: human, plasma, po, 80 mg, Tmax, median (range), Part B, 80 mg QD fed, Day 1
READOUT: Tmax (h)
Give just the numeric value; h need not be written.

*Q* What Tmax value was documented for this molecule, Nc1ccc(-c2nc([C@H]3CCc4cc(-c5cc(Cl)ccc5-n5cnnn5)cc(=O)n43)c(F)[nH]2)c(F)n1 [ONO‐7684] ?
*A* 2.5

---

Assay: plasma pharmacokinetics in first‐in‐human study
Format: in vivo
Conditions: human, plasma, po, 80 mg, Tmax, median (range), Part B, 80 mg QD fed, Day 14
READOUT: Tmax (h)
Give just the numeric value; h need not be written.

*Q* What Tmax value was documented for this compound, `Nc1ccc(-c2nc([C@H]3CCc4cc(-c5cc(Cl)ccc5-n5cnnn5)cc(=O)n43)c(F)[nH]2)c(F)n1` ?
*A* 4.01

---

Assay: plasma pharmacokinetics in first‐in‐human study
Type: in vivo
Settings: human, plasma, oral, Tmax, median range across cohorts, Part B, Day 14
READOUT: Tmax

*Q* What Tmax value was documented for this compound, `Nc1ccc(-c2nc([C@H]3CCc4cc(-c5cc(Cl)ccc5-n5cnnn5)cc(=O)n43)c(F)[nH]2)c(F)n1` ?
*A* 4 to 4.01 h

---

Assay: plasma pharmacokinetics in first‐in‐human study
Type: in vivo
Conditions: human, plasma, po, 1 mg, Tmax, median (range), Part A, single dose 1 mg, fasted
READOUT: Tmax (h)
Give just the numeric value; h need not be written.

*Q* What Tmax value was documented for this molecule, `Nc1ccc(-c2nc([C@H]3CCc4cc(-c5cc(Cl)ccc5-n5cnnn5)cc(=O)n43)c(F)[nH]2)c(F)n1` ?
*A* 2.5
